Target: USP19 (UniProt O94966)
Experiment: log2 ratio of Biotin-Ahx-Ub-VS probe labelling (fragment/DMSO); higher = less target engagement (more negative = stronger competition), active = hit call of the paper (q ≤ 0.05, log2 ratio ≤ -1)
Conditions: compound concentration: 200 uM; treatment time: 3 h
Lab note: anything with log2 ratio of Biotin-Ahx-Ub-VS probe labelling at or over -0.1 counts as TRUE; the rest go in FALSE.

>>> class_label("O=C(CCl)NC1CCCCNC1=O (configuration not stated)")
"FALSE"
>>> class_label("Cc1nc(CN2CCCN(C(=O)CCl)CC2)no1.Cl")
"TRUE"
>>> class_label("NC(=O)C(Cc1ccccc1)NC(=O)CCl (configuration not stated)")
"TRUE"
>>> class_label("Cc1cccc(NC(=O)[C@@H]2CCCN2C(=O)CCl)n1")
"FALSE"

Next:
Form field: log2 ratio of Biotin-Ahx-Ub-VS probe labelling at least -0.1? Entry: CN(Cc1nc2ccccc2[nH]1)C(=O)CCl.Cl
TRUE

###

Target: USP5 (UniProt P45974)
Sequence (P45974 whole entry, the tested form may be a part): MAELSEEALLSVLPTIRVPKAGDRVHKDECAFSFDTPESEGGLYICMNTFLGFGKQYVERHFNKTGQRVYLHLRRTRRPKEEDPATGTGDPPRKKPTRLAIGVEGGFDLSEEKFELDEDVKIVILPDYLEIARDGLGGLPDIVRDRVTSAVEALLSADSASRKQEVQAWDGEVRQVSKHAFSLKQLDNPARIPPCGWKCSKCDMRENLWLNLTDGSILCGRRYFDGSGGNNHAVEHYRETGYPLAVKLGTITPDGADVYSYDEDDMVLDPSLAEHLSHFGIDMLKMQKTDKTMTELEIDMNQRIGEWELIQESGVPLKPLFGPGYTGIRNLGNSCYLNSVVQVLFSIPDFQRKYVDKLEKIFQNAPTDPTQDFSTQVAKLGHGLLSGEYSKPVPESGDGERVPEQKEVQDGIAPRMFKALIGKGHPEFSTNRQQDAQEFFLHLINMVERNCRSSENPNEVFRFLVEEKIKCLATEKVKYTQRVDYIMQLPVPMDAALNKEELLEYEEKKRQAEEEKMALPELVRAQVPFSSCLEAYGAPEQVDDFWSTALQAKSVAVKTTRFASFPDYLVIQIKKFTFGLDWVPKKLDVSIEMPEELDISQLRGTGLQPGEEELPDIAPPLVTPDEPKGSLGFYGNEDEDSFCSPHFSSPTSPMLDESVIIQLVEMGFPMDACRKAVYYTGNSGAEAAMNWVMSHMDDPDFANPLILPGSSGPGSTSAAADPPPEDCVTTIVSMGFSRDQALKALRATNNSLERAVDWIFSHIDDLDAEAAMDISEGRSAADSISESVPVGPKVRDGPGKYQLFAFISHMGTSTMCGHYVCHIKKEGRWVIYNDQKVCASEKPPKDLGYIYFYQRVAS
Experiment: log2 ratio of Biotin-Ahx-Ub-VS probe labelling (fragment/DMSO); higher = less target engagement (more negative = stronger competition), active = hit call of the paper (q ≤ 0.05, log2 ratio ≤ -1)
Conditions: compound concentration: 200 uM; treatment time: 3 h
Classes are defined on log2 ratio of Biotin-Ahx-Ub-VS probe labelling with ranges zone 1: < -0.1; zone 2: ≥ -0.1 and < 0.1; zone 3: ≥ 0.1

Example entries and their recorded answers appear below.
>>> class_label("Cc1nc(CNC(=O)CCl)c2ccccn12.Cl")
"zone 3"
>>> class_label("O=C(CCl)N1CCc2sccc2C1")
"zone 1"
>>> class_label("O=C(CCl)N1CC=C(c2c[nH]c3ccccc23)CC1")
"zone 1"
>>> class_label("O=C(CCl)N1CCC(C(=O)N2CCCC2)CC1")
"zone 1"
>>> class_label("O=C(CCl)N1CCN2C(=O)CCC2C1 (stereo not given)")
"zone 3"

The entry to classify is Cc1n[nH]c2c1CN(C(=O)CCl)CC2 ; which class holds it?
zone 1

The entry to classify is O=C(CCl)NCc1ccc(N2CCOCC2)c(F)c1 ; which class holds it?
zone 3

The entry to classify is CC1CCc2onc(CNC(=O)CCl)c2C1 (stereo not given) ; which class holds it?
zone 3

The entry to classify is O=C(CCl)Nc1ccc(N2CCCC2=O)cc1 ; which class holds it?
zone 2

The entry to classify is Cl.O=C(CCl)NCc1cc2c(nc1O)CCCC2 ; which class holds it?
zone 2

###

Target: FAM105A (UniProt Q9NUU6)
Test: log2 ratio of Biotin-Ahx-Ub-VS probe labelling (fragment/DMSO); higher = less target engagement (more negative = stronger competition), active = hit call of the paper (q ≤ 0.05, log2 ratio ≤ -1)
Conditions: compound concentration: 200 uM; treatment time: 3 h
readout_name: log2 ratio of Biotin-Ahx-Ub-VS probe labelling
Form: value (number only, do not type unit).

>>> assay_value("O=C(CCl)N1CCN(C(=O)N2CCCCC2)CC1")
-0.215
>>> assay_value("Cn1cc(CN(Cc2ccc(Cl)cc2)C(=O)CCl)cn1")
-0.189
>>> assay_value("COc1ccc(Cl)cc1NC(=O)CCl")
-0.287
>>> assay_value("Cc1cccnc1NC(=O)C1CCN(C(=O)CCl)CC1.Cl")
-0.0889
>>> assay_value("Cc1ccc(C(=O)NCCNC(=O)CCl)cc1")
-0.349

Need log2 ratio of Biotin-Ahx-Ub-VS probe labelling, item Cl.O=C(CCl)NCCc1ncc(F)cc1F
0.131

Need log2 ratio of Biotin-Ahx-Ub-VS probe labelling, item Cl.Cn1cnc2cc(CNC(=O)CCl)ccc21
-0.318

###

Biological target: USP34 (UniProt Q70CQ2)
Sequence (Q70CQ2 whole entry, the tested form may be a part): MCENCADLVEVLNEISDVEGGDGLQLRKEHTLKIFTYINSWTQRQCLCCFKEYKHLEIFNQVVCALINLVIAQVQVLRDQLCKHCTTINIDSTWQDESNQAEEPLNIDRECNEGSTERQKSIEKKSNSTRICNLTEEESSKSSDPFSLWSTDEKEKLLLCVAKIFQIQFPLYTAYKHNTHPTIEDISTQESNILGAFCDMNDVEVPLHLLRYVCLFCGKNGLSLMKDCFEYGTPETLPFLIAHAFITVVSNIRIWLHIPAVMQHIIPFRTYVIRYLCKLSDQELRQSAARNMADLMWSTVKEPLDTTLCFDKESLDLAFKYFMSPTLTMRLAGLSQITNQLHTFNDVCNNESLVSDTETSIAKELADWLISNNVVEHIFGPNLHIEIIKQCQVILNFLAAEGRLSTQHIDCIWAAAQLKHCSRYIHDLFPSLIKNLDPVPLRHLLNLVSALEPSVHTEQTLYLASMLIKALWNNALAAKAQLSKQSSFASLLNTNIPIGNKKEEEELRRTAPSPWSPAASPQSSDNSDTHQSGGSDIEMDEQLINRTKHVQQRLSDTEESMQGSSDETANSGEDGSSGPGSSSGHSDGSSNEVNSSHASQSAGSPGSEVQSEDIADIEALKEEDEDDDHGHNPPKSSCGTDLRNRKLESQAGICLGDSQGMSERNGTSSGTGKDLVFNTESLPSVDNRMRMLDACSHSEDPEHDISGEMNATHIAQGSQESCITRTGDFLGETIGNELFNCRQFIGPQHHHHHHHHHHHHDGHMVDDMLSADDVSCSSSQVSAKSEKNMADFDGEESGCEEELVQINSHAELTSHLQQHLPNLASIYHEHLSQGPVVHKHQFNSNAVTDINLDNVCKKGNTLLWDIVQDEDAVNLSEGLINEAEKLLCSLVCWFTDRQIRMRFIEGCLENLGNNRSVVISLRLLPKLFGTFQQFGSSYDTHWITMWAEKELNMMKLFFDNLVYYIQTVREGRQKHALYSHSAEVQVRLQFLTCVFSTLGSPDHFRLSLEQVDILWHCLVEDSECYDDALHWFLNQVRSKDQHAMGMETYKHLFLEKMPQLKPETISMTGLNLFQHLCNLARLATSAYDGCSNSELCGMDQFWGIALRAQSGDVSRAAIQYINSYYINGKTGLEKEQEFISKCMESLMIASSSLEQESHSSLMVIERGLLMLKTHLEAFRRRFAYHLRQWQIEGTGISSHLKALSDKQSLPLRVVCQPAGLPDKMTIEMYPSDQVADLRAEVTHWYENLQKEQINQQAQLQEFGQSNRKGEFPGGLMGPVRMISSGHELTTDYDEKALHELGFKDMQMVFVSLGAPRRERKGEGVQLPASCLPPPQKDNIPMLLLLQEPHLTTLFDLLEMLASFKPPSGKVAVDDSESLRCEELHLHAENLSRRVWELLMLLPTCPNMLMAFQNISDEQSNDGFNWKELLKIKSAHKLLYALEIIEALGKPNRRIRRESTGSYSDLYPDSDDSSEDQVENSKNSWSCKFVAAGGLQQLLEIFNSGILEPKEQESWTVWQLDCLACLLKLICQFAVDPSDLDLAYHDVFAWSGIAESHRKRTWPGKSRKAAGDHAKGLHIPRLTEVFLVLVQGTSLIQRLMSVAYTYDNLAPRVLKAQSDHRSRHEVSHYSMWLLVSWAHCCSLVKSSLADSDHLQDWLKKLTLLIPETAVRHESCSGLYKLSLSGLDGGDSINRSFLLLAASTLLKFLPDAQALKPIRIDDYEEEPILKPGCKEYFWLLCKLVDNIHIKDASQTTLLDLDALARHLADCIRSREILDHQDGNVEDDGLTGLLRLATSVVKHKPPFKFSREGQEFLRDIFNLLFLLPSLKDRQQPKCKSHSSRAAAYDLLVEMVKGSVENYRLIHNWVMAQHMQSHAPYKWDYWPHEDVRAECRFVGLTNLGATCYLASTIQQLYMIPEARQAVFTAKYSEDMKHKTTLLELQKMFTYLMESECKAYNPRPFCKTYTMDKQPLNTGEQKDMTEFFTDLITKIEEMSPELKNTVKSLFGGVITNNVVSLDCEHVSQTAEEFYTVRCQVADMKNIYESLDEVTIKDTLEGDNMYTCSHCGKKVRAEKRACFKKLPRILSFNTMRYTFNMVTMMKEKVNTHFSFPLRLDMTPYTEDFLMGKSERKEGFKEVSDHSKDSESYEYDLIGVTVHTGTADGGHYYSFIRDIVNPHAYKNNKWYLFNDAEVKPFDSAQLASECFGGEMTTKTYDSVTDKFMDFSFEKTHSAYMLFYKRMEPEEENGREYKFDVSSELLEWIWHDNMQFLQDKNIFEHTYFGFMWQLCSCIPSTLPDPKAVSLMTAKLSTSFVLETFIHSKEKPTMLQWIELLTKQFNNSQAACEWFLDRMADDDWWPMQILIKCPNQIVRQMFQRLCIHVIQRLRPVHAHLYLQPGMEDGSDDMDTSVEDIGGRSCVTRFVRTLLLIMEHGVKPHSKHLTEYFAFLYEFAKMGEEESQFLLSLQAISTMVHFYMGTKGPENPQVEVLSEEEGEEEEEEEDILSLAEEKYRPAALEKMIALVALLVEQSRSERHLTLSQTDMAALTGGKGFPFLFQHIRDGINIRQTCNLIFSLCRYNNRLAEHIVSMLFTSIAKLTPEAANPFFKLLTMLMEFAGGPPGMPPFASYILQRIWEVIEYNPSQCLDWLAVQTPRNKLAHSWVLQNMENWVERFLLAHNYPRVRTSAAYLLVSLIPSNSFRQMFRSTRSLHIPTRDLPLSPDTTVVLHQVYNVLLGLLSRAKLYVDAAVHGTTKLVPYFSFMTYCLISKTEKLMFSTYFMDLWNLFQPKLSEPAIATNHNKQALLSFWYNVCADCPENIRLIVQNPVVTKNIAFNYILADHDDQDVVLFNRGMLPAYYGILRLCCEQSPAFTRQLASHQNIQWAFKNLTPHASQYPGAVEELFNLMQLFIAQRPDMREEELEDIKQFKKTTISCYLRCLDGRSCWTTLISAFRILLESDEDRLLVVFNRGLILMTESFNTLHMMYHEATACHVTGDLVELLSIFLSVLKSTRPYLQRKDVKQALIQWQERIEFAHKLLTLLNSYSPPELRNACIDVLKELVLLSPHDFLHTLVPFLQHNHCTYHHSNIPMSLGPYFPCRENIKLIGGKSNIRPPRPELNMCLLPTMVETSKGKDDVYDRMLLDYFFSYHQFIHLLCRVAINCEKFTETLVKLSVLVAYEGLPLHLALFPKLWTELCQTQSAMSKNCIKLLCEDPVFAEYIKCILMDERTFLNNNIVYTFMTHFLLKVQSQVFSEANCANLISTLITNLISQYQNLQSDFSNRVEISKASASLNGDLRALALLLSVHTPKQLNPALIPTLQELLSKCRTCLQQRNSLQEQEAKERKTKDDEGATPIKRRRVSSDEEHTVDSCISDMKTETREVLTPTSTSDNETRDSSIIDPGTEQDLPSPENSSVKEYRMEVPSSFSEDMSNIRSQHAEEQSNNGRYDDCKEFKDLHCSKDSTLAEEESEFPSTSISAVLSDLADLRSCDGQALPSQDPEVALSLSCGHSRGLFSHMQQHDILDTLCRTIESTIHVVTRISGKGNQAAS
Assay: log2 ratio of Biotin-Ahx-Ub-VS probe labelling (fragment/DMSO); higher = less target engagement (more negative = stronger competition), active = hit call of the paper (q ≤ 0.05, log2 ratio ≤ -1)
Conditions: compound concentration: 200 uM; treatment time: 3 h
readout_name: log2 ratio of Biotin-Ahx-Ub-VS probe labelling

The cases that follow already have their log2 ratio of Biotin-Ahx-Ub-VS probe labelling on record.
>>> assay_value("O=C(CCl)Nc1ccc(Cl)c(F)c1")
"-0.317 (inactive)"
>>> assay_value("Cl.O=C(CCl)NCCc1ncc(F)cc1F")
"-0.216 (inactive)"
>>> assay_value("Cc1ccc(CC(NC(=O)CCl)c2ccccn2)cc1.Cl (centres undefined)")
"-0.162 (inactive)"

Need log2 ratio of Biotin-Ahx-Ub-VS probe labelling, item NS(=O)(=O)c1ccc(Cl)c(NC(=O)CCl)c1
-0.381 (inactive)

Need log2 ratio of Biotin-Ahx-Ub-VS probe labelling, item Cc1ccc(C(=O)NCCNC(=O)CCl)cc1
-0.0636 (inactive)

Need log2 ratio of Biotin-Ahx-Ub-VS probe labelling, item CC1Cc2ccccc2N1C(=O)CCl (centres undefined)
-0.159 (inactive)

###

Target: UniProt Q9UGI0
Sequence (Q9UGI0 whole entry, the tested form may be a part): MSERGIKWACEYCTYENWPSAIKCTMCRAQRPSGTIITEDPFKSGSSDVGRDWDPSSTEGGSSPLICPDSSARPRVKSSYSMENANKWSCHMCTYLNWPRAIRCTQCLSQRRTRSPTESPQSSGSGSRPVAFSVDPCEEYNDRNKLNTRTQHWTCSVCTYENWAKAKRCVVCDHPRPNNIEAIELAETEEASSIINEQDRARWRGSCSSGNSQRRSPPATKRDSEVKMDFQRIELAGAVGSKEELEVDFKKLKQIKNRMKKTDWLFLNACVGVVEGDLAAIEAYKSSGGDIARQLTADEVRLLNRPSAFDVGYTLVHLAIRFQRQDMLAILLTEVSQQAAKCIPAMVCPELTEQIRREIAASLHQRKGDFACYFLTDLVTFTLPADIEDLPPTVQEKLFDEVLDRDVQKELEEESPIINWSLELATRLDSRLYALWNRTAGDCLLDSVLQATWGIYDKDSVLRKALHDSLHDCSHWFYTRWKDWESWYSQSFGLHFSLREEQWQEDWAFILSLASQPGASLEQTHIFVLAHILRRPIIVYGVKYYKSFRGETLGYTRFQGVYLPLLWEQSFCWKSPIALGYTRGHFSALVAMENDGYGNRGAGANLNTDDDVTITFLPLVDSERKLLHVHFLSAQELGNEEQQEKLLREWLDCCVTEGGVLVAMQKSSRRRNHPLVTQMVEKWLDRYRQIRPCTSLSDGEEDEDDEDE
Test: log2 ratio of Biotin-Ahx-Ub-VS probe labelling (fragment/DMSO); higher = less target engagement (more negative = stronger competition), active = hit call of the paper (q ≤ 0.05, log2 ratio ≤ -1)
Details: compound concentration: 200 uM; treatment time: 3 h
readout_name: log2 ratio of Biotin-Ahx-Ub-VS probe labelling

>>> assay_value("Cl.Cn1ncc2c1CCCC2NC(=O)CCl (configuration not stated)")
"0.0166 (inactive)"
>>> assay_value("O=C(CCl)Nc1ccc(N2CCCC2=O)cc1")
"-0.752 (inactive)"
>>> assay_value("CCC1c2ccsc2CCN1C(=O)CCl (configuration not stated)")
"-0.444 (inactive)"
>>> assay_value("N#Cc1ccccc1N1CCN(C(=O)CCl)CC1")
"-2.22 (active)"
>>> assay_value("Cl.O=C(CN1CCN(C(=O)CCl)CC1)Nc1ccc(F)cc1")
"-0.166 (inactive)"

Need log2 ratio of Biotin-Ahx-Ub-VS probe labelling, item CC1CN(c2ccc(NC(=O)CCl)cc2)CC(C)O1 (configuration not stated)
-0.221 (inactive)

Need log2 ratio of Biotin-Ahx-Ub-VS probe labelling, item Cc1c(C#N)c(NC(=O)CCl)n(Cc2ccco2)c1C
-0.313 (inactive)

###

Molecular target: UCHL3 (UniProt P15374)
Assay: log2 ratio of Biotin-Ahx-Ub-VS probe labelling (fragment/DMSO); higher = less target engagement (more negative = stronger competition), active = hit call of the paper (q ≤ 0.05, log2 ratio ≤ -1)
Settings: compound concentration: 200 uM; treatment time: 3 h
Can you answer with just one of these options? true (1) = active, false (0) = inactive

>>> class_label("C#Cc1cccc(NC(=O)CCl)c1")
"true (1)"

Which outcome was entered for the molecule O=C(CCl)N1CCN(c2nc3ccccc3o2)CC1 in this test?
false (0)

###

Target: USP4 (UniProt Q13107)
Assay: log2 ratio of Biotin-Ahx-Ub-VS probe labelling (fragment/DMSO); higher = less target engagement (more negative = stronger competition), active = hit call of the paper (q ≤ 0.05, log2 ratio ≤ -1)
Conditions: compound concentration: 200 uM; treatment time: 3 h
List of log2 ratio of Biotin-Ahx-Ub-VS probe labelling values.
Form: value (number only, do not type unit).

>>> assay_value("Cc1cccc(NC(=O)CCl)c1C")
-0.269
>>> assay_value("Cc1cccc(NC(=O)[C@@H]2CCCN2C(=O)CCl)n1")
-0.0817
>>> assay_value("Cc1c(C#N)c(NC(=O)CCl)n(Cc2ccco2)c1C")
-0.372
>>> assay_value("O=C(CCl)NC(Cn1ccccc1=O)c1ccccc1 (centres undefined)")
-0.127
>>> assay_value("CC1CN(c2ccc(NC(=O)CCl)cc2)CC(C)O1 (centres undefined)")
-0.104
>>> assay_value("CS(=O)(=O)c1ccc(CNC(=O)CCl)cc1")
-0.0105
>>> assay_value("O=C(CCl)NCc1noc(C2CC2)n1")
0.00316
>>> assay_value("Cc1cccc(N2CCC(NC(=O)CCl)C2=O)c1 (centres undefined)")
-0.134

Need log2 ratio of Biotin-Ahx-Ub-VS probe labelling, item O=C(CCl)N1CCCCCC1c1ncon1 (centres undefined)
-0.0581

Need log2 ratio of Biotin-Ahx-Ub-VS probe labelling, item NS(=O)(=O)c1ccc(Cl)c(NC(=O)CCl)c1
-0.198

Need log2 ratio of Biotin-Ahx-Ub-VS probe labelling, item Cc1n[nH]c2c1CN(C(=O)CCl)CC2
-0.888

Need log2 ratio of Biotin-Ahx-Ub-VS probe labelling, item CCc1c[nH]c(CNC(=O)CCl)n1.Cl
-0.159

Need log2 ratio of Biotin-Ahx-Ub-VS probe labelling, item Cc1n[nH]c(=O)c2c(NC(=O)CCl)oc(C)c12
0.0593

###

Molecular target: EIF3F (UniProt O00303)
Assay: log2 ratio of Biotin-Ahx-Ub-VS probe labelling (fragment/DMSO); higher = less target engagement (more negative = stronger competition), active = hit call of the paper (q ≤ 0.05, log2 ratio ≤ -1)
Conditions: compound concentration: 200 uM; treatment time: 3 h
List of log2 ratio of Biotin-Ahx-Ub-VS probe labelling values.
Form: value (number only, do not type unit).

The cases that follow already have their log2 ratio of Biotin-Ahx-Ub-VS probe labelling on record.
>>> assay_value("O=C(O)C1Cc2ccccc2CN1C(=O)CCl (centres undefined)")
-0.182
>>> assay_value("Cc1ncsc1CCNC(=O)CCl")
0.501
>>> assay_value("O=C(CCl)N1CCC2(CCC(O)CC2)CC1")
-0.321
>>> assay_value("Cc1c(NC(=O)CCl)c(=O)n(-c2ccccc2)n1C")
-0.188
>>> assay_value("O=C(CCl)Nc1cc(Cl)ccc1C(=O)O")
-0.053

Need log2 ratio of Biotin-Ahx-Ub-VS probe labelling, item COc1ccc(CN(C)C(=O)CCl)cc1
-0.171

Need log2 ratio of Biotin-Ahx-Ub-VS probe labelling, item Cl.O=C(CCl)NCCN1CCc2ccccc21
-0.106

Need log2 ratio of Biotin-Ahx-Ub-VS probe labelling, item CCN(C(=O)CCl)C1CCS(=O)(=O)C1 (centres undefined)
-0.357

Need log2 ratio of Biotin-Ahx-Ub-VS probe labelling, item O=C(CCl)N(Cc1ccsc1)C1CC1
-0.0964

Need log2 ratio of Biotin-Ahx-Ub-VS probe labelling, item CC(NC(=O)CCl)c1cccc2ccccc12 (centres undefined)
-0.0141

These data points were gathered from the supplement of paper PMC11732987.
